# MEASUREMENT_NOTES: Cell viability assay HEK293 (CellTiter-Glo)
# Assay type: cell-based
# PROTOCOL_CONDITIONS: human, HEK293 cells, read-out: HEK293 (CC50 code)
Quick reference for CC50 at 3 days among some compounds

In the examples that follow, each entry is paired with its recorded CC50 at 3 days.
| COMPOUND | CC50 at 3 days |
| --- | --- |
| O=C(NS(=O)(=O)c1ccc(NCC2CCOCC2)c([N+](=O)[O-])c1)c1ccc(N2CCN(CC3Cc4ccccc4CN3C(=O)c3cccs3)CC2)cc1Oc1cnc2[nH]ccc2c1 (centres unmarked) [Compound 6] | > 25 µM |
| O=C(NS(=O)(=O)c1ccc(NC2CCOC2)c([N+](=O)[O-])c1)c1ccc(N2CCC(CN3CCCCC3c3ccc(Cl)cc3)CC2)cc1Oc1cnc2[nH]ccc2c1 (centres unmarked) [Compound 63] | > 25 µM |
| O=C(NS(=O)(=O)c1ccc(NCC2CCOCC2)c([N+](=O)[O-])c1)c1ccc(N2CCN(C[C@@H]3CC(F)CN3c3ccc(Cl)cc3)CC2)cc1Oc1cnc2[nH]ccc2c1 (some centres unmarked) [Compound 66] | 10 to 25 µM |

Please look up its CC50 at 3 days: O=C(NS(=O)(=O)c1ccc(NCC2CCOCC2)c([N+](=O)[O-])c1)c1ccc(N2CCN(CC(O)(c3ccccc3)c3ccc(Cl)cc3)CC2)cc1Oc1cnc2[nH]ccc2c1 (centres unmarked) [Compound 43]
> 25 µM

Which CC50 at 3 days is reported for this compound? CC1(C)CN(CC2CCN(c3ccc(C(=O)NS(=O)(=O)c4ccc(NCC5CCOCC5)c([N+](=O)[O-])c4)c(Oc4cnc5[nH]ccc5c4)c3)CC2)Cc2ccccc21 [Compound 39]
> 25 µM

----------
# MEASUREMENT_NOTES: Cell viability assay HEK293 (CellTiter-Glo)
# Type: cell-based
# PROTOCOL_CONDITIONS: human, HEK293 cells, read-out: HEK293 (CC50 code)
// reported CC50 at 3 days per item

These solved cases illustrate the format of a correct answer.
| COMPOUND | CC50 at 3 days |
| --- | --- |
| O=C(NS(=O)(=O)c1ccc(NCC2CCOCC2)c([N+](=O)[O-])c1)c1ccc(N2CCN(C[C@@H]3Cc4ccccc4CN3C(=O)C3CCNC3)CC2)cc1Oc1cnc2[nH]ccc2c1 (some centres unmarked) | > 25 µM |
| O=C(NS(=O)(=O)c1ccc(NCC2CCOCC2)c([N+](=O)[O-])c1)c1ccc(N2CCN(CC3Cc4cc(Cl)ccc4CN3C(=O)C3CC3)CC2)cc1Oc1cnc2[nH]ccc2c1 (centres unmarked) | > 25 µM |
| O=C(NS(=O)(=O)c1ccc(NCC2CCOCC2)c([N+](=O)[O-])c1)c1ccc(N2CCC(CN3CCCCC3c3ccc(Cl)cc3)CC2)cc1Oc1cnc2[nH]ccc2c1 (centres unmarked) | 10 to 25 µM |
| O=C(NS(=O)(=O)c1ccc(NCC2CCOCC2)c([N+](=O)[O-])c1)c1ccc(N2CCN(C[C@@H]3Cc4cc(Cl)ccc4CN3C(=O)C3CC3)CC2)cc1Oc1cnc2[nH]ccc2c1 | > 25 µM |
| CC1=CC[C@@H](CN2CCN(c3ccc(C(=O)NS(=O)(=O)c4ccc(NCC5CCOCC5)c([N+](=O)[O-])c4)c(Oc4cnc5[nH]ccc5c4)c3)CC2)[C@H](c2ccc(Cl)cc2)C1 | 10 to 25 µM |
| Cn1ncc(Oc2cc(N3CCC(CN4CCCCC4c4ccc(Cl)cc4)CC3)ccc2C(=O)NS(=O)(=O)c2ccc(NCC3CCOCC3)c([N+](=O)[O-])c2)cc1=O (centres unmarked) | 10 to 25 µM |
| O=C(NS(=O)(=O)c1ccc(NCC2CCOCC2)c([N+](=O)[O-])c1)c1ccc(N2CCC(Cn3c(-c4ccc(Cl)cc4)nc4cccnc43)CC2)cc1Oc1cnc2[nH]ccc2c1 | > 25 µM |
| CC1=CC[C@H](CN2CCN(c3ccc(C(=O)NS(=O)(=O)c4ccc(NCC5CCOCC5)c([N+](=O)[O-])c4)c(Oc4cnc5[nH]ccc5c4)c3)CC2)[C@@H](c2ccc(Cl)cc2)C1 | 10 to 25 µM |
| CC(C)C(=O)N1Cc2ccc(Cl)cc2C[C@H]1CN1CCN(c2ccc(C(=O)NS(=O)(=O)c3ccc(NCC4CCOCC4)c([N+](=O)[O-])c3)c(Oc3cnc4[nH]ccc4c3)c2)CC1 | 10 to 25 µM |
| O=C(NS(=O)(=O)c1ccc(NCC2CCOCC2)c([N+](=O)[O-])c1)c1ccc(N2CCN(C[C@@H]3Cc4ccc(F)cc4CN3C(=O)C3CC3)CC2)cc1Oc1cnc2[nH]ccc2c1 | > 25 µM |

Give the measured CC50 at 3 days of O=C(NS(=O)(=O)c1ccc(NCC2CCOCC2)c([N+](=O)[O-])c1)c1ccc(N2CCN(C(c3ccccc3)c3ccc(F)cc3)CC2)cc1Oc1ccc2[nH]ccc2c1 (centres unmarked) .
> 25 µM

# query: CC50 at 3 days of entry O=C(NS(=O)(=O)c1ccc(NCC2CCOCC2)c([N+](=O)[O-])c1)c1ccc(N2CCN(C(c3ccc(F)cc3)c3ccc(F)cc3)CC2)cc1Oc1ccc2[nH]ccc2c1
> 25 µM

Entry CC(C)C(=O)N1Cc2ccc(F)cc2C[C@H]1CN1CCN(c2ccc(C(=O)NS(=O)(=O)c3ccc(NCC4CCOCC4)c([N+](=O)[O-])c3)c(Oc3cnc4[nH]ccc4c3)c2)CC1 : reported CC50 at 3 days = ?
> 25 µM

Which CC50 at 3 days value is on record for O=C(NS(=O)(=O)c1ccc(NCC2CCOCC2)c([N+](=O)[O-])c1)c1ccc(N2CCC(CN3C(=O)C4(CCCC4)C3c3cncc(Cl)c3)CC2)cc1Oc1cnc2[nH]ccc2c1 (centres unmarked) ?
> 25 µM

Returns the measured CC50 at 3 days for the input compound. Input: O=C(NS(=O)(=O)c1ccc(NCC2CCOCC2)c([N+](=O)[O-])c1)c1ccc(N2CCN(C[C@@H]3Cc4ccccc4CN3C(=O)c3ccsc3)CC2)cc1Oc1cnc2[nH]ccc2c1
10 to 25 µM

Quick one: CC50 at 3 days for O=C1CC[C@]2(c3ccc(Cl)cc3)C[C@@]2(CN2CCN(c3ccc(C(=O)NS(=O)(=O)c4ccc(NCC5CCOCC5)c([N+](=O)[O-])c4)c(Oc4cnc5[nH]ccc5c4)c3)CC2)C1 ?
10 to 25 µM

What value of measured CC50 at 3 days is listed for CC1=CC[C@@H]2C[C@H]1[C@H](c1ccc(Cl)cc1)N(CC1CCN(c3ccc(C(=O)NS(=O)(=O)c4ccc(NCC5CCOCC5)c([N+](=O)[O-])c4)c(Oc4cnc5[nH]ccc5c4)c3)CC1)C2 ?
> 25 µM

Returns the measured CC50 at 3 days for the input compound. Input: O=C(NS(=O)(=O)c1ccc(NCC2CCOCC2)c([N+](=O)[O-])c1)c1ccc(N2CCC(CN3CCCCC3c3ccc(Cl)cc3)CC2)cc1Oc1cccc(F)c1 (centres unmarked)
10 to 25 µM

Give its CC50 at 3 days value. Item: O=C(NS(=O)(=O)c1ccc(NCC2CCOCC2)c([N+](=O)[O-])c1)c1ccc(N2CCN(C[C@@H]3Cc4cc(F)ccc4CN3C(=O)C3CC3)CC2)cc1Oc1cnc2[nH]ccc2c1
> 25 µM

May I ask what CC50 at 3 days has been recorded for O=C(NS(=O)(=O)c1ccc(NC2CCS(=O)(=O)CC2)c([N+](=O)[O-])c1)c1ccc(N2CCC(CN3CCCCC3c3ccc(Cl)cc3)CC2)cc1Oc1cnc2[nH]ccc2c1 (centres unmarked) ?
> 25 µM

----------
compounds and their reported CC50
# System: RS4-11 cells
# MEASUREMENT_NOTES: Cell viability assay RS4-11 (CellTiter-Glo)
# Type: cell-based
# PROTOCOL_CONDITIONS: Homo sapiens, 72 h; RS4-11 cells, 3 days, CellTiter-Glo; read-out: RS4-11 (CC50 code)

| SMILES_CODE | CC50 |
| --- | --- |
| CC(C)C(=O)N1Cc2ccccc2C[C@H]1CN1CCN(c2ccc(C(=O)NS(=O)(=O)c3ccc(NCC4CCOCC4)c([N+](=O)[O-])c3)c(Oc3cnc4[nH]ccc4c3)c2)CC1 | > 200 nM |
| CC(C)C(=O)N1Cc2cc(Cl)ccc2C[C@H]1CN1CCN(c2ccc(C(=O)NS(=O)(=O)c3ccc(NCC4CCOCC4)c([N+](=O)[O-])c3)c(Oc3cnc4[nH]ccc4c3)c2)CC1 | > 200 nM |

Any idea what its CC50 is? The compound is O=C(NS(=O)(=O)c1ccc(NCC2CCOCC2)c([N+](=O)[O-])c1)c1ccc(N2CCN(C(c3ccc(F)cc3)c3ccc(F)cc3)CC2)cc1Oc1ccc2[nH]ccc2c1
> 200 nM

----------
# System: RS4-11 cells
# MEASUREMENT_NOTES: Cell viability assay RS4-11 (CellTiter-Glo)
# Assay type: cell-based
# PROTOCOL_CONDITIONS: Homo sapiens, 72 h; RS4-11 cells, 3 days, CellTiter-Glo; read-out: RS4-11 (CC50 code)
Each entry below lists one item and its recorded CC50 value.

| MOLECULE | CC50 |
| --- | --- |
| CC1(O)CC[C@H](CN2CCN(c3ccc(C(=O)NS(=O)(=O)c4ccc(NCC5CCOCC5)c([N+](=O)[O-])c4)c(Oc4cnc5[nH]ccc5c4)c3)CC2)[C@@H](c2ccc(Cl)cc2)C1 (stereo partly drawn) | 0.1 to 0.2 µM |
| O=C(NS(=O)(=O)c1ccc(NCC2CCOCC2)c([N+](=O)[O-])c1)c1ccc(N2CCN(CC(O)(c3ccccc3)c3ccccc3)CC2)cc1Oc1cnc2[nH]ccc2c1 | > 0.2 µM |

// next entry
Return reported CC50; argument: O=C(NS(=O)(=O)c1ccc(NCC2CCOCC2)c([N+](=O)[O-])c1)c1ccc(N2CCC(CN3CCCCC3c3ccc(Cl)cc3)CC2)cc1Oc1cnc2[nH]ccc2c1 (stereo not drawn)
> 0.2 µM
